- TESTED SYSTEM: T1, ALK2-FC (UniProt Q04771 21-123, limits assumed)
- T1 construct: Only the embodiments speak of 'human ALK2'; not shown: Fc part
- T1 sequence (looked up): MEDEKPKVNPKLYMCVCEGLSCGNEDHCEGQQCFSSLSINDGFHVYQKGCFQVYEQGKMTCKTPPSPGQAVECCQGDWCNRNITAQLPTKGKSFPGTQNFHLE
- ASSAY COMMENT: BLI, ForteBio Octet RED384; monovalent fAB-FH against ALK2-FC
For each of the binders below, state its koff.
Just the number please, in s⁻¹, no unit attached.

Noted for Antibody 2, monovalent fAB in fAB-FH format (Fab, V domains shown, also called Anti-ALK2 fAB) VH: EVQLVESGGGLVKPGGSLRLSCAASGFTFSSHAMSWVRQAPGKGLEWVGRIKSKADSGTTDYAAPVKGRFTISRDDSKNTLYLQMNSLKTEDTAVYYCARDYGVAFAYWGQGTLVTVSS VL: DIELTQPPSVSVSPGQTASITCSGDSIPSFFASWYQQKPGQAPVLVIYRDSNRPSGIPERFSGSNSGNTATLTISGTQAEDEADYYCYVTAPWKSIWVFGGGTKLTVLG : its koff reads 0.000357

Lab note: Antibody 1, monovalent fAB in fAB-FH format (Fab, V domains shown, also called Anti-ALK2 fAB) VH: QVQLVQSGAEVKKPGSSVKVSCKASGGTFSSYGVSWVRQAPGQGLEWMGGIIPHFGIANYAQKFQGRVTITADESTSTAYMELSSLRSEDTAVYYCAREIGSLDIWGQGTLVTVSS VL: DIVLTQPPSVSGAPGQRVTISCSGSSSNIGSNYVSWYQQLPGTAPKVLIYKNNHRPSGVPDRFSGSKSGTSASLAITGLQAEDEADYYCASWDHSDRFYVFGGGTKLTVLG gave koff of 0.00172
